- protocol_text: NCI Yeast Anticancer Drug Screen. Data for the rad50EPP+ strain (AID 151)
- experimental_context: S. cerevisiae rad50 mutant strain, at 100.0 µM
Compounds without any hit were thinned out: in the full panel of roughly 79,000, 15% have a hit. Activity calls are given as the source filed them. Rule as the data show it: active = growth inhibition above about 70%; inactive = the rest.
Would you mind answering with one of these outcomes? active, inactive

Q: Lab log entry: "OC1(C#CI)CCCCC1" — outcome as called in the assay?
Result: active

Q: Just curious, what result did "C/C(=N/NC(=S)Nc1ccccc1C)c1ccccn1" get here?
Result: inactive

Q: So what was the verdict on "O=C(c1ccccc1)[C@H]1Nc2ccc(Cl)cc2[C@H]2OCCC[C@@H]12" in this test?
Result: inactive

Q: Each molecule tested received a call. Report the one for "CC1=C(C)C(=O)C2=C(OCCO2)C1=O" .
Result: inactive

Q: Outcome? "CC1CCN(CCC(=O)c2ccc([N+](=O)[O-])cc2)CC1"
Result: inactive

Q: Could you please tell me the result logged for "CN1CCN(C(=O)c2cccc3cccc(C(=O)O)c23)CC1" in this assay?
Result: active

Q: Field: outcome | Entry: "CC(C)(CN1CCCCC1)C(=O)/C=C/c1c(Cl)cccc1Cl"
Result: inactive

Q: Any idea what this test logged for "O=[N+]([O-])c1ccc(/C=C\c2ccc3c(c2)OCO3)c([N+](=O)[O-])c1" ?
Result: active

Q: Tell me the recorded outcome of this test for "COc1cccc(/C=C2\S/C(=N/Nc3nc(-c4ccc([N+](=O)[O-])cc4)cs3)NC2=O)c1O" .
Result: active

Q: // param item: O=C1C(CCSc2ccccc2)C(=O)N(c2ccccc2)C1c1ccccc1 (configuration not stated) ; yields the recorded call
Result: inactive

Q: # lookup: test call for "CC(C)OC(=O)NNc1cc(Cl)ccc1Cl"
Result: active

Q: Test call for this molecule, please: OC(CC(O)(C(F)(F)F)C(F)(F)F)c1ccc(C(O)CC(O)(C(F)(F)F)C(F)(F)F)cc1 (configuration not stated)
Result: inactive

Where do these numbers come from? They come from PubChem BioAssay (NCI).
